Assayed Target: T1, Human TREM2 extracellular domain (ECD), residues 19-131, C-terminally biotinylated, deglycosylated (human, UniProt Q9NZC2 19-131, C-terminally biotinylated; deglycosylated)
T1 construct: range 19-131; loaded on Superstreptavidin biosensors; also called triggering receptor expressed on myeloid cells 2; Human BLI (deglycosylated)
T1 sequence (looked up): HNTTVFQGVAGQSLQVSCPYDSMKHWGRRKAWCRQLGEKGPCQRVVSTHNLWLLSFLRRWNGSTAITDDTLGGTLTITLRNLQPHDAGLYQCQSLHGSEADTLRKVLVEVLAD
Method Notes: BLI steady state, deglycosylated human TREM2 ECD on sensor
*1 amine or outer side, *2 acyl side, *3 side chain or, on linkers, in order; H or OH if unused. Bridges are numbered along the chain shown (N, C = ends). Where no end group is shown, it is not given here. TATA = O=C(CC[*:1])N1CN(C(=O)CC[*:2])CN(C(=O)CC[*:3])C1

# Binder, Kd / µM
rows = [
    ("ACTSYCFWPFYQCA-NH2 (linker 2-6-13 via TATA; N-terminus assumed; SMILES C[C@H](N)C(=O)N[C@H]1CSCCC(=O)N2CN3CN(C2)C(=O)CCSC[C@H](NC(=O)[C@H](Cc2ccc(O)cc2)NC(=O)[C@H](CO)NC(=O)[C@H]([C@@H](C)O)NC1=O)C(=O)N[C@@H](Cc1ccccc1)C(=O)N[C@@H](Cc1c[nH]c2ccccc12)C(=O)N1CCC[C@H]1C(=O)N[C@@H](Cc1ccccc1)C(=O)N[C@@H](Cc1ccc(O)cc1)C(=O)N[C@@H](CCC(N)=O)C(=O)N[C@H](C(=O)N[C@@H](C)C(N)=O)CSCCC3=O) [BCY19768]", 0.9),
    ("Ac-CSEYCFWPFYAC (linker 1-5-12 via TATA) [BCY19293]", 0.97),
    ("ACSNYCFWPFWQCA (linker 2-6-13 via TATA) [BCY19770]", 1.8),
]
